Source of measurements: PubChem BioAssay AID1259407

# Tested on: CCRIS mutagenicity, Ames/micronucleus/aberration tests
# procedure.details: CCRIS mutagenicity studies
# reported.conditions: Test System: AMES SALMONELLA TYPHIMURIUM; Strain/Indicator: TA97; Metabolic Activation: NONE; Method: PREINCUBATION
The source made the active and inactive calls. No rule for the calls is given here.
# valid calls are true (1) = active, false (0) = inactive; nothing else

Assay result, entry COc1ccc(N)cc1N — outcome? false (0)

Assay result, entry O=C(O)c1ccccc1[N+](=O)[O-] — outcome? false (0)

Assay result, entry Cc1ccccc1N — outcome? false (0)

Assay result, entry NC(N)=NC(=O)c1nc(Cl)c(N)nc1N — outcome? false (0)

Assay result, entry COc1cc(-c2cc(OC)cc(C(C)(C)C)c2O)c(O)c(C(C)(C)C)c1 — outcome? false (0)

Assay result, entry C=CCSSCCC — outcome? false (0)

Assay result, entry CC(C)(O)C#N — outcome? false (0)

Assay result, entry CC(O)CBr (stereo unspecified) — outcome? false (0)

Assay result, entry [O-][Cl+]O — outcome? false (0)

Assay result, entry C1N2CN3CN1CN(C2)C3 — outcome? false (0)

Assay result, entry CC(=O)Nc1ccc(/C=N/n2nnc3c([nH]c4ccccc43)c2=O)cc1 — outcome? true (1)

Assay result, entry CCCC(=O)OCC — outcome? false (0)

Assay result, entry O=CC=O — outcome? false (0)

Assay result, entry Nc1c(C(=O)N/N=C/c2ccccc2)[nH]c2ccccc12 — outcome? false (0)

Assay result, entry CS(C)=O — outcome? false (0)

Assay result, entry COC(=O)Nc1nc2ccccc2[nH]1 — outcome? false (0)

###

# Tested on: CCRIS mutagenicity, Ames/micronucleus/aberration tests
# procedure.details: CCRIS mutagenicity studies
# reported.conditions: Test System: AMES SALMONELLA TYPHIMURIUM; Strain/Indicator: TA1538; Metabolic Activation: NONE; Method: STANDARD PLATE
# Source text: The CCRIS database contains chemical records with carcinogenicity, mutagenicity, tumor promotion, and tumor inhibition test results. It was developed by the National Cancer Institute (NCI). Data are derived from studies cited in primary journals, current awareness tools, NCI reports, and other sources. Test results have been reviewed by experts in carcinogenesis and mutagenesis. CCRIS provides historical information from the years 1985 - 2011. It is no longer updated. […]
Calls of active or inactive are those of the source. The rule behind the calls is not given here. Where a SMILES comes first, the peptide text is derived from it. [ ]: non-standard residue; d: D form. pGlu = O=C1CC[C@@H](C(=O)O)N1; Thz = O=C(O)[C@@H]1CSCN1
# valid calls are True = active, False = inactive; nothing else

Assay result, entry COc1ccc2nc3cc(Cl)ccc3c(NCCCNCCCl)c2c1 — outcome? True

Assay result, entry O=c1[nH]cnc2[nH]ncc12 — outcome? False

Assay result, entry Cc1cc(-c2ccc(N/N=C3/C(=O)c4c(N)cc(S(=O)(=O)O)cc4C=C3S(=O)(=O)O)c(C)c2)ccc1N/N=C1/C(=O)c2c(N)cc(S(=O)(=O)O)cc2C=C1S(=O)(=O)O — outcome? False

Assay result, entry O=C1CC[C@@H](C(=O)N2CSC[C@H]2C(=O)O)N1 ([pGlu]-[Thz]-OH) — outcome? False

Assay result, entry CC(=O)O[C@]1(C(C)=O)CC[C@H]2[C@@H]3C4OC4(Cl)C4=CC(=O)[C@@H]5C[C@@H]5[C@]4(C)[C@H]3CC[C@@]21C (some centres not stated) — outcome? False

Assay result, entry Nc1cc2c(cc1[N+](=O)[O-])[nH]c1ccccc12 — outcome? True

Assay result, entry CC1(C)[C@@H](O[C@H]2O[C@H](C(=O)O)[C@@H](O)[C@H](O)[C@H]2O[C@@H]2O[C@H](C(=O)O)[C@@H](O)[C@H](O)[C@H]2O)CC[C@]2(C)[C@H]3C(=O)C=C4[C@@H]5C[C@@](C)(C(=O)O)CC[C@]5(C)CC[C@@]4(C)[C@]3(C)CC[C@@H]12 — outcome? False

###

# System: CCRIS mutagenicity, Ames/micronucleus/aberration tests
# procedure.details: CCRIS mutagenicity studies
# reported.conditions: Test System: AMES SALMONELLA TYPHIMURIUM; Strain/Indicator: TA97; Metabolic Activation: RAT, LIVER, S-9, PHENOBARBITAL; Method: STANDARD PLATE
Activity calls are given as the source filed them. How the calls were made is not given here.
# valid calls are active, inactive; nothing else

Assay result, entry O=C/C(=C(/Cl)C(=O)O)C(Cl)Cl — outcome? inactive

Assay result, entry C[n+]1ccccc1-c1cccc[n+]1C — outcome? active

Assay result, entry Cl — outcome? inactive

Assay result, entry O=C(O)/C(Cl)=C(\C(=O)O)C(Cl)Cl — outcome? inactive

###

# System: CCRIS mutagenicity, Ames/micronucleus/aberration tests
# procedure.details: CCRIS mutagenicity studies
# reported.conditions: Test System: AMES SALMONELLA TYPHIMURIUM; Strain/Indicator: TA1535; Metabolic Activation: RAT, LIVER, S-9; Method: PREINCUBATION
Active and inactive are the calls of the source. No rule for the calls is given here.
# valid calls are active, inactive; nothing else

Assay result, entry CCCCN(CCCC)N=O — outcome? inactive

Assay result, entry O=NN1CCOCC1 — outcome? active

Assay result, entry CC/C(=C(/c1ccc(OCCN(C)C)cc1)c1ccc(OP(=O)(O)O)cc1)c1ccc(C(C)C)cc1 — outcome? inactive

Assay result, entry O=C(O)C(F)(F)C(F)(F)C(F)(F)C(F)(F)C(F)(F)C(F)(F)C(F)(F)C(F)(F)C(F)(F)F — outcome? inactive

###

# System: CCRIS mutagenicity, Ames/micronucleus/aberration tests
# procedure.details: CCRIS mutagenicity studies
# reported.conditions: Test System: E.COLI; Strain/Indicator: WP2UVRA/PKM101; Metabolic Activation: RAT LIVER S-9, PHENOBARBITAL AND BETA-NAPHTHOFLAVONE; Method: PREINCUBATION
Activity calls are given as the source filed them. The rule behind the calls is not given here.
parameter.measured: mutagenic call

Some molecules with known mutagenic call results, for comparison:
>>> observed_result("CCCCCCCCCCCCCCCCCC(N)=O")
"inactive; negative"
>>> observed_result("NC=O")
"inactive; negative"
>>> observed_result("O=C(S)c1ccccc1")
"inactive; negative"
>>> observed_result("O=[N+]([O-])c1ccc(/C=C/c2ccc([N+](=O)[O-])cc2S(=O)(=O)O)c(S(=O)(=O)O)c1")
"inactive; negative"

Now consider the entry below.
State the recorded mutagenic call for this entry: COC(=O)CC(=O)OC inactive; negative

###

# Test system: CCRIS mutagenicity, Ames/micronucleus/aberration tests
# procedure.details: CCRIS mutagenicity studies
# reported.conditions: Test System: AMES SALMONELLA TYPHIMURIUM; Strain/Indicator: TA98; Metabolic Activation: NONE; Method: STANDARD PLATE
Active and inactive are the calls of the source. No rule for the calls is given here.
parameter.measured: mutagenic call

Some compounds with known mutagenic call results, for comparison:
>>> observed_result("[Co]")
"active; positive"
>>> observed_result("Cc1ccc(C(=O)n2ncc(Cl)c(Cl)c2=O)cc1")
"inactive; negative"
>>> observed_result("O=C1CCC(=O)N1Br")
"inactive; negative"
>>> observed_result("O=[N+]([O-])c1cccc2c1ccc1cccc([N+](=O)[O-])c12")
"active; positive"
>>> observed_result("Nc1ccccc1-c1ccccc1")
"inactive; negative"

State the recorded mutagenic call for this entry: OC[C@H]1O[C@@H](n2cnc3c(NC[C@H](O)COc4cccc5ccccc45)ncnc32)[C@H](O)[C@@H]1O inactive; negative

State the recorded mutagenic call for this entry: Nc1ccc(/C=C/c2cccc(N)c2)cc1 active; positive

State the recorded mutagenic call for this entry: Cc1c2ccncc2c(C)c2c1[nH]c1ccc(N)cc12 active; positive

State the recorded mutagenic call for this entry: Nc1cc(S(=O)(=O)O)cc2c1C(=O)/C(=N/Nc1ccc(-c3ccc(N/N=C4/C(=O)c5c(N)cc(S(=O)(=O)O)cc5C=C4S(=O)(=O)O)cc3)cc1)C(S(=O)(=O)O)=C2 inactive; negative

State the recorded mutagenic call for this entry: C[C@@H]1CC[C@@]2(OC1)O[C@H]1C[C@H]3[C@@H]4CC=C5C[C@@H](O)CC[C@]5(C)[C@H]4CC[C@]3(C)[C@H]1[C@@H]2C inactive; negative

###

# Tested on: CCRIS mutagenicity, Ames/micronucleus/aberration tests
# procedure.details: CCRIS mutagenicity studies
# reported.conditions: End Point: IN VITRO CHROMOSOMAL ABERRATIONS; Test System: CHL CELLS; Metabolic Activation: NONE
Calls of active or inactive are those of the source. The rule behind the calls is not given here.
# valid calls are Yes (active), No (inactive); nothing else

Assay result, entry O=CC=O — outcome? Yes

Assay result, entry CC(C)(c1ccc(O)cc1)c1ccc(O)cc1 (tested in a mixture with another compound) — outcome? Yes

Assay result, entry COCCl — outcome? Yes

Assay result, entry COC(=O)C(Cl)Cl — outcome? Yes

Assay result, entry NCc1ccc(CN)cc1 — outcome? No
